- TEST PROTOCOL: C18 reverse phase HPLC elution of fatty acyl peptides (hydrophobicity)
- Type: physicochemical
- ASSAY SETUP: C18 reverse phase HPLC, acyl derivative of GNAAS[125I]YRR; Table 2
Label scheme for Elution Time: lower than 20 min is not fulfilled, 20 min and above is fulfilled.

Example entries begin here.
• CCCSCCCCCCCCCC(=O)O = not fulfilled
• CCCCOCCCCCCCCCCC(=O)O = not fulfilled

Q) Please tell me: is the molecule CCSCCCCCCCCCCC(=O)O [A, 11-(Ethylthio)undecanoic acid] at or over 20 min in terms of Elution Time?
A) not fulfilled

Q) Input CCCCCCCCCCCCCC(=O)O [myristic acid, reference compound]
A) fulfilled

Q) Queued: `CCCCCCCCOCCCCC(=O)O`
A) not fulfilled

Q) Same thing, different molecule: `CCCCCCCCSCCCCC(=O)O`
A) fulfilled

Q) One more molecule: CCOCCCCCCCCCCC(=O)O [B, 11-(Ethoxy)undecanoic acid]
A) not fulfilled

Q) Follow-up item: `C#CCOCCCCCCCCCC(=O)O`
A) not fulfilled
